biological target: Casein kinase II (Homo sapiens, UniProt P19784+P67870+P68400); assay: Inhibition of CK2; assay type: protein-complex assay
Sequence (P67870 whole entry): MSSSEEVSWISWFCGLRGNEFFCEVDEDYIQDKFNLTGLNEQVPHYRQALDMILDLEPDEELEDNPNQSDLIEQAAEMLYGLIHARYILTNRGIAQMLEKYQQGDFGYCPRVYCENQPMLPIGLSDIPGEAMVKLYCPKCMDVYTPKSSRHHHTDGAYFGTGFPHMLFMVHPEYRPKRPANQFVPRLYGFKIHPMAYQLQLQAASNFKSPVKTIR
Sequence (P68400 whole entry): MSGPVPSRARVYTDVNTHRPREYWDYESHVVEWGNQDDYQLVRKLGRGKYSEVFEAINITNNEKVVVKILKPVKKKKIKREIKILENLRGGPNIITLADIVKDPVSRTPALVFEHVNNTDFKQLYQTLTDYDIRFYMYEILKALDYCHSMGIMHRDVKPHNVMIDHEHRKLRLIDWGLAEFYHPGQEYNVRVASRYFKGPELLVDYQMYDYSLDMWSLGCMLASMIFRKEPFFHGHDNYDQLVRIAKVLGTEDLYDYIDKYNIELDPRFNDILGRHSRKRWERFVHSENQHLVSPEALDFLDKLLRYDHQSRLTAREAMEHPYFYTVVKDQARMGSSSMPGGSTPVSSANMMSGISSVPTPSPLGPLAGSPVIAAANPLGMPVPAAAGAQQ
Sequence (P19784 whole entry): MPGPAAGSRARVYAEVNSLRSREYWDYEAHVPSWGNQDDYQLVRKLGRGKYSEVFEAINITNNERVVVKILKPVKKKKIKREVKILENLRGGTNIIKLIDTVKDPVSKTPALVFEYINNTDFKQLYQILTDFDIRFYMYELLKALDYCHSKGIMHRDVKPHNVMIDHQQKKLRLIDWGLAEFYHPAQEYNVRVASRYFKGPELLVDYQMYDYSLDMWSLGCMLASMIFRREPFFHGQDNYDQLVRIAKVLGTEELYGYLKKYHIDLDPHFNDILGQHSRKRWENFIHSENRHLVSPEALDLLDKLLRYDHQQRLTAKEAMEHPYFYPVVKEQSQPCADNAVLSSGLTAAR
quantity-kind: log10(Ki) (log10 of the value in nM)

1. C=CCn1c(Br)nc2c(Br)c(Br)c(Br)c(Br)c21: 2.80
2. Cn1c(Br)nc2c(Br)c(Br)c(Br)c(Br)c21: 2.73
3. CC(C)Nc1nc2c(Br)c(Br)c(Br)c(Br)c2n1C: 2.28
4. Brc1nc2c(Br)c(Br)c(Br)c(Br)c2[nH]1: 2.36
5. CN(C)c1nc2c(Br)c(Br)c(Br)c(Br)c2n1C: 2.30
6. OCC(O)CSc1nc2c(Br)c(Br)c(Br)c(Br)c2[nH]1 (configuration not stated): 2.15
7. O=c1[nH]c2c(Br)c(Br)c(Br)c(Br)c2[nH]1: 2.18
8. NC(=O)Cn1c(Br)nc2c(Br)c(Br)c(Br)c(Br)c21: 3.28
9. CC(O)CNc1nc2c(Br)c(Br)c(Br)c(Br)c2[nH]1 (configuration not stated): 2.15
10. O=C(O)CSc1nc2c(Br)c(Br)c(Br)c(Br)c2[nH]1: 2.26
11. CC(C)Nc1nc2c(Br)c(Br)c(Br)c(Br)c2[nH]1: 1.78
12. CNc1nc2c(Br)c(Br)c(Br)c(Br)c2[nH]1: 1.95

----------
biological target: Dual specificity tyrosine-phosphorylation-regulated kinase 1A (Homo sapiens, UniProt Q13627)
pIC50: −log10 of the molar value.
quantity-kind: pIC50

1) CN(C)c1nc2c(Br)c(Br)c(Br)c(Br)c2[nH]1: 6.92

----------
biological target: Casein kinase II (Homo sapiens, UniProt P19784+P67870+P68400); assay: Inhibition of CK2
Each item that follows carries a reported IC50.
quantity-kind: IC50 (nM)

1) C=CCn1c(Br)nc2c(Br)c(Br)c(Br)c(Br)c21: 880
2) OCCNc1nc2c(Br)c(Br)c(Br)c(Br)c2[nH]1: 270
3) CC(C)Oc1nc2c(Br)c(Br)c(Br)c(Br)c2n1C: 20400
4) CCOC(=O)CSc1nc2c(Br)c(Br)c(Br)c(Br)c2[nH]1: 1550
